# Test system: P388 leukemia ip, CD2F1 mice, survival T/C
# run_description: NCI In Vivo Anticancer Drug Screen. Data for tumor model P388 Leukemia (intraperitoneal) in CD2F1 (CDF1) mice
# experimental_setup: endpoint: median survival time; dose: 200.0 mg/kg/injection; schedule: Q01DX005 (ip); vehicle: saline; higher = longer survival
Inconclusive results and toxic doses are left out.
Measured T/C, listed per entry for reference.
value_kind: T/C

compound=CCCCCCNCC(=O)OCC result="110 % of control"
compound="CC1(C(=O)O)CCC2(C)CCC3(C)C(=CC(=O)C4C5(C)CCC(OC6OC(C(=O)O)C(O)C(O)C6OC6OC(C(=O)O)C(O)C(O)C6O)C(C)(C)C5CCC43C)C2C1 (stereo not drawn)" result="103 % of control"
compound="NC1CC(=O)N(Cc2ccccc2)C1=O (stereo not drawn)" result="93 % of control"
